biological target: ALK (Homo sapiens, UniProt Q9UM73); construct: host or cells: baculovirus expression system; assay: ALK Kinase Assay (ELISA/TRF, PLC-γ substrate); format: biochemical; settings: ALK kinase inhibition, 1 μM ATP; read-out: ALK Potency
Sequence (Q9UM73 19-1620): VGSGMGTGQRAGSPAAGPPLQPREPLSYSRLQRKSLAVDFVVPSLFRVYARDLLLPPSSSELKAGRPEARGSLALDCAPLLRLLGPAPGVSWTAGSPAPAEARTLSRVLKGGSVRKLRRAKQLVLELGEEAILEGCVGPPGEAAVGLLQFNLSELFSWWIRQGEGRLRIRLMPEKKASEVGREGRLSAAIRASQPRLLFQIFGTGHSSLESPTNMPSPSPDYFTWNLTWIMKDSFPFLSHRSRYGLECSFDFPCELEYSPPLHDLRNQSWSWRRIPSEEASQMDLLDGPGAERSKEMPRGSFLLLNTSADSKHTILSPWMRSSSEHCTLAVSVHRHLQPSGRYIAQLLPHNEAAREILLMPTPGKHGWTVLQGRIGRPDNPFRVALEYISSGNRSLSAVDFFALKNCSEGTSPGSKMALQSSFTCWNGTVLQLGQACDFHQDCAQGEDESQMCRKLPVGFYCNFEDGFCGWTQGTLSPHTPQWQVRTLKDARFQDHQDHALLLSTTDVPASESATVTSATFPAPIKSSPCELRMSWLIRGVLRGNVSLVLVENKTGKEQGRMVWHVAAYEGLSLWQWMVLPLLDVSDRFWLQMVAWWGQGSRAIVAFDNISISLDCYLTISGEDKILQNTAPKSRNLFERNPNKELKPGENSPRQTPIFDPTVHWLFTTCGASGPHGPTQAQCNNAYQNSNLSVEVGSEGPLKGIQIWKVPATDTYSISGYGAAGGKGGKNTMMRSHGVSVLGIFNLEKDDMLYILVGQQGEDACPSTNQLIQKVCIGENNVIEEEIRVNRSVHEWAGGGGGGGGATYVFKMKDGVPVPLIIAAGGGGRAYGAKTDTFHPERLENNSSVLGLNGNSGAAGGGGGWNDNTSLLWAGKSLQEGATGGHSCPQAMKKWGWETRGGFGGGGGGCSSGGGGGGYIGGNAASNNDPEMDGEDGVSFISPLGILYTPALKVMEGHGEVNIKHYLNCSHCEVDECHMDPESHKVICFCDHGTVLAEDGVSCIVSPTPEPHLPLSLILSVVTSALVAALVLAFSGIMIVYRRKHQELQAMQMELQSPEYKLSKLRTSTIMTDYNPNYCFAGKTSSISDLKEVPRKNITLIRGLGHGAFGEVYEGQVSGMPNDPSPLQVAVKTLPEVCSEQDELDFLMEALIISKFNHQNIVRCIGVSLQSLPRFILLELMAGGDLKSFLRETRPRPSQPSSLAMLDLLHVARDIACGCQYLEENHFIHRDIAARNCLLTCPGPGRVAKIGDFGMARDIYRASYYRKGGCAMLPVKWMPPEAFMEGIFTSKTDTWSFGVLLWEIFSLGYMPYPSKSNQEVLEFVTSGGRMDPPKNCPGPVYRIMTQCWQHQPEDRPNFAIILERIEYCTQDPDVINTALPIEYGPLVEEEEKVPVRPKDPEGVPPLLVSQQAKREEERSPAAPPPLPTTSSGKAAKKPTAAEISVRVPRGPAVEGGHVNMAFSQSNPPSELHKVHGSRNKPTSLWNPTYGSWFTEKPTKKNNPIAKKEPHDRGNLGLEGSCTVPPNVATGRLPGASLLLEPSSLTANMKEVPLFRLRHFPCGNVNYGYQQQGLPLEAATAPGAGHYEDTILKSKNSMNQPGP
pIC50: −log10 of the molar value.
PROPERTY MEASURED: pIC50

Known results for molecules:
INPUT: Any idea what pIC50 was measured for CC(C)(C)NS(=O)(=O)c1cccc(-c2ccc3cnc(Nc4ccc5cnn(CCN6CCOCC6)c5c4)nn23)c1 ?
OUTPUT: 5.00 to 6.00

INPUT: Any idea what pIC50 was measured for CN1CCN(Cc2cccc(Nc3ncc4ccc(-c5cccc(S(C)(=O)=O)c5)n4n3)n2)CC1 ?
OUTPUT: < 5.00

INPUT: Any idea what pIC50 was measured for COc1cc2c(cc1Nc1ncc3ccc(-c4ccccc4N(C)S(C)(=O)=O)n3n1)CN(C(=O)CN)C2 ?
OUTPUT: > 7.00

INPUT: Any idea what pIC50 was measured for Cc1nn(C)cc1-c1ccc2cnc(Nc3ccc(N4CCN(C)CC4)cc3)nn12 ?
OUTPUT: 6.00 to 7.00

INPUT: Any idea what pIC50 was measured for CN(c1ccccc1-c1ccc2cnc(Nc3ccc4nn(CCN5CCOCC5)cc4c3)nn12)S(C)(=O)=O ?
OUTPUT: > 7.00

INPUT: Any idea what pIC50 was measured for COc1ccccc1-c1ccc2cnc(Nc3cccc(C4C(=O)N(C)CCN4C)c3)nn12 (centres unmarked) ?
OUTPUT: 5.00 to 6.00

INPUT: Any idea what pIC50 was measured for COc1cc(-c2cccnc2)ccc1Nc1ncc2ccc(-c3ccccc3N(C)S(C)(=O)=O)n2n1 ?
OUTPUT: 6.00 to 7.00

INPUT: Any idea what pIC50 was measured for COc1cc(C2CCN(CC(N)=O)CC2)ccc1Nc1ncc2ccc(-c3ccccc3C#N)n2n1 ?
OUTPUT: > 7.00

Kindly give each listed record's pIC50.
1. CC(=O)N1CCc2ccc(Nc3ncc4ccc(-c5cccc(C(=O)NC(C)(C)C)c5)n4n3)cc21
2. COc1ccc(CN2CCOCC2)cc1Nc1ncc2ccc(-c3ccccc3OC)n2n1
3. COCc1ccccc1-c1ccc2cnc(Nc3ccc(N4CCC(N5CCN(C)CC5)CC4)cc3OC)nn12
4. NC(=O)CN1CCC(c2ccc(Nc3ncc4ccc(-c5cccc6c5OCC6)n4n3)cc2)CC1
5. CN(c1ccccc1-c1ccc2cnc(Nc3ccn(CCN4CCOCC4)n3)nn12)S(C)(=O)=O

OUTPUT:
< 5.00
5.00 to 6.00
> 7.00
> 7.00
6.00 to 7.00

INPUT: Any idea what pIC50 was measured for CN1CCc2ccc(Nc3ncc4ccc(-c5cccc(S(=O)(=O)NC(C)(C)C)c5)n4n3)cc2C1 ?
OUTPUT: 6.00 to 7.00
